# melting point listing for each entry below

Solved cases below.
{"compound": "COc1cc(C(N)=NO)ccc1O", "readout_kind": "melting point", "data_value": "147 to 149 °C"}
{"compound": "CN1C(=O)CNc2ccccc21", "readout_kind": "melting point", "data_value": "88 to 90 °C"}
{"compound": "O=C(O)c1cc(Cl)c([N+](=O)[O-])[nH]1", "readout_kind": "melting point", "data_value": "236 to 238 °C"}

// melting point lookup, key: CC(C)(C)c1ccc(SCC(=O)O)cc1
65 to 67 °C

Then what about the compound Cc1nc(CNc2ccc(F)cc2)cs1 ?
76 to 78 °C

Continue with Cc1c(Br)cccc1CO
89 to 91 °C

How about this compound: C#CC1CCCN(C(=O)OC(C)(C)C)C1 (configuration not stated)
67 to 69 °C

====

# melting point per record follows

Please review the entries below; each comes with its answer.
{"compound": "CC(C)(C)OC(=O)N1CCc2ccccc2C1C(=O)O (stereo not given)", "melting point": "142 to 144 °C"}
{"compound": "O=C(O)Cc1ccc(S(=O)(=O)Cl)s1", "melting point": "85 to 87 °C"}

I would be grateful if you could share the reported melting point for CN(CCO)CCC(=O)O .
89 to 91 °C

====

Entries and their melting point

# example entries with known answers
{"compound": "Fc1ccc(NCc2ccccn2)cc1", "melting point": "71 to 73 °C"}
{"compound": "O=C(O)C=Cc1cn(-c2ccccc2)nc1-c1cc2ccccc2o1", "melting point": "225 to 227 °C"}
{"compound": "CCn1cc(C=O)c2ccccc21", "melting point": "104 to 106 °C"}
{"compound": "NC1CCN(c2c(F)cccc2F)C1=O (centres undefined)", "melting point": "62 to 64 °C"}
{"compound": "O=C(O)Cc1ccc(OCCOc2ccccc2)cc1", "melting point": "169 to 171 °C"}
{"compound": "Nc1ccnn1C1CCCCC1", "melting point": "80 to 82 °C"}
{"compound": "Nc1ccc(=O)n(Cc2ccc(Cl)c(Cl)c2)c1", "melting point": "131 to 133 °C"}
{"compound": "Cc1cnc(C#N)c(C)c1", "melting point": "58 to 60 °C"}
{"compound": "NC(=O)NC(=O)C(Cl)c1ccccc1 (centres undefined)", "melting point": "170 to 172 °C"}
{"compound": "Cc1nc(C(N)=O)c(N)n1C", "melting point": "159 to 161 °C"}

Suppose we examine the compound Cc1nc(-c2ccc(Br)cc2)sc1C(C)O (centres undefined) ; what melting point value has been reported?
119 to 121 °C

Try COC(=O)c1ccnc(C#N)c1 next.
109 to 111 °C

Request: CCN1CCCC1CNS(=O)(=O)c1ccc(N)cc1 (centres undefined)
101 to 103 °C

Entry CC(C)(C)OC(=O)Nc1ccc(C=O)cn1 please
169 to 171 °C

====

readout_kind: melting point

A selection of reference data follows.
{"compound": "O=C(O)c1ccc(OC2CCCC2)cc1", "melting point": "171 to 173 °C"}
{"compound": "Cc1ccc(S(=O)(=O)c2ccc(NN)cc2)cc1", "melting point": "173 to 175 °C"}
{"compound": "CCC(CC)n1nccc1C(=O)O", "melting point": "137 to 139 °C"}
{"compound": "O=C(O)c1ccc(-c2ccc(Cl)cc2)s1", "melting point": "260 to 262 °C"}
{"compound": "Cc1ccc(N2CCc3c(N)cccc3C2)nn1", "melting point": "144 to 146 °C"}
{"compound": "O=C(CCl)Nc1cccc(C(=O)N2CCSCC2)c1", "melting point": "152 to 154 °C"}
{"compound": "Cc1ccnc(Cl)c1O", "melting point": "97 to 99 °C"}
{"compound": "O=C(CCl)Nc1ncc(Cc2ccc(F)cc2)s1", "melting point": "149 to 151 °C"}

With those in mind, consider the next compound.
Which melting point reading was recorded for the compound Nn1c(S)nnc1-c1ccco1 ?
207 to 209 °C

====

// melting point lookup, one value per entry

{"molecule": "Cc1cc(NS(=O)(=O)c2cccc(C(=O)O)c2)no1", "readout_kind": "melting point", "data_value": "195 to 197 °C"}
{"molecule": "O=C(O)c1cc(-n2ccnc2)ccn1", "readout_kind": "melting point", "data_value": "194 to 196 °C"}
{"molecule": "Cc1cc(C(=O)O)c2cnn(C)c2n1", "readout_kind": "melting point", "data_value": "284 to 286 °C"}
{"molecule": "Cc1cc(C(=O)O)c(Br)s1", "readout_kind": "melting point", "data_value": "181 to 183 °C"}
{"molecule": "Cc1nn(-c2ccc(F)cc2)c(Cl)c1CO", "readout_kind": "melting point", "data_value": "134 to 136 °C"}

# get_value(readout='melting point', item= CC(C)(C)NC(=O)c1cccc(N)c1 )
124 to 126 °C

Another molecule to look at: CC(Cl)C(=O)Nc1cccc(I)c1 (configuration not stated)
94 to 96 °C

====

Recorded melting point for the following compounds

{"compound": "Cc1ccc2cc(C(=O)O)[nH]c2c1", "melting point": "209 to 211 °C"}

Quick check: melting point of CN(C)c1nccc(Cl)n1 ?
79 to 81 °C

Query O=Cc1cn(Cc2ccccc2)nc1-c1cc2ccccc2o1 next
146 to 148 °C

And for O=C(O)c1cnc(-c2ccccc2)s1 ?
187 to 189 °C

And for COc1ccc(-c2nn(CCC#N)cc2C(=O)O)cc1[N+](=O)[O-] ?
190 to 192 °C

And then Cc1cc(=O)n2c([nH]c3ccccc32)c1C#N , what is it?
270 to 272 °C

Check COc1cc2nc(C)sc2cc1N too.
89 to 91 °C

====

Reported melting point is given for each of the following compounds.

Example compounds with recorded melting point:
{"compound": "O=C(O)c1cnn(-c2ccc(F)cc2)n1", "readout_kind": "melting point", "data_value": "214 to 216 °C"}
{"compound": "COc1cc(CC#N)cc(Br)c1OC(F)F", "readout_kind": "melting point", "data_value": "200 to 203 °C"}
{"compound": "O=C(O)c1cc(S(=O)(=O)NCc2ccco2)c(Cl)cc1Cl", "readout_kind": "melting point", "data_value": "149 to 151 °C"}
{"compound": "CC(Cl)C(=O)N1CC(=O)Nc2cc(C(F)(F)F)ccc21 (stereo not drawn)", "readout_kind": "melting point", "data_value": "152 to 154 °C"}
{"compound": "CCc1nc(N)nc(SC)n1", "readout_kind": "melting point", "data_value": "143 to 145 °C"}

Report melting point for FC(F)(F)c1ccccc1-c1nnc(CCl)o1 please.
35 to 37 °C

What about Cc1ccc(S(=O)(=O)NC(C(=O)O)C(C)C)cc1 (stereo not drawn) ?
167 to 169 °C

Also Nc1ccnc(N2CCCC2)n1 ?
218 to 220 °C

// next record CCNc1nc2cc(Cl)ccc2s1
118 to 120 °C

====

readout_kind: melting point

{"compound": "CC(C)(C)CCS(=O)(=O)Cl", "melting point": "33 to 35 °C"}
{"compound": "NC(=O)C1CCN(Cc2cccc(N)c2)CC1", "melting point": "139 to 141 °C"}
{"compound": "CC(=O)c1ccc(OC(C)C(=O)O)cc1 (stereo unspecified)", "melting point": "158 to 161 °C"}

# input compound: O=C1NC(=O)C(=Cc2ccccc2C(F)(F)F)S1 ; wanted: its melting point
170 to 172 °C

Can you check CC(C)(C)C(=O)N1CCNCC1 next?
52 to 54 °C

What do you have for CCOC(=O)c1nn(-c2ccccc2)cc1C=O ?
99 to 101 °C

Another compound to check: CC(=O)Nc1cncc(C(=O)NN)c1
229 to 231 °C

Param item: COc1cc(C)cc2c(C)c(C(=O)O)oc12
239 to 241 °C

====

readout_kind: melting point

{"compound": "COc1cc(N2CC(C(=O)O)CC2=O)cc(OC)c1OC (configuration not stated)", "readout_kind": "melting point", "data_value": "143 to 145 °C"}
{"compound": "CCCCOc1ccc(C(N)=O)cc1", "readout_kind": "melting point", "data_value": "162 to 164 °C"}

Which melting point value is on record for O=C(O)C1CC(=O)N(c2nccs2)C1 (configuration not stated) ?
184 to 186 °C

Moving on to the next compound: Sc1ccc2c(c1)OCCCO2
41 to 43 °C

For CCOc1ccc2c(c1)NC(=O)C2=O then?
226 to 228 °C

Please do the same for OC1CC(c2ccccc2F)C1 (configuration not stated) as well.
46 to 48 °C

// next record c1ccc2c(c1)NCCCS2
22 to 24 °C
